- System: CAKI-1 renal
- measurement-protocol: NCI-60 one-dose screen, 48 h (100 = growth as untreated, 0 = no growth, -100 = all killed)
- condition-summary: 10 µM unless noted
- Protocol: Growth inhibition of the CAKI-1 human tumor cell line is measured as a screen for anti-cancer activity. Cells are grown in 96 well plates and exposed to the test compound for 48 hours. Compounds are tested at a single concentration, which is 10^-5 M for most compounds. The reported endpoint is percent growth (GI% or GIPRCNT), where numbers from 0 - 100% represent growth inhibition, and numbers from -100% - 0 represent cell death. For example, a value of 40 represents 60% growth inhibition. […]
Compounds without any hit were thinned out: in the full panel of roughly 83,000, 20% have a hit.
Hi! Just check whether growth is below 90%. Below gives true, equal or above gives false.

Record excerpt, results attached:
O=C1C(Br)=CC2C1C1C3CCC3C2(Br)C12OCCO2 (configuration not stated) ... true
NC(=O)c1c(Nc2ccccc2)nn2cc(-c3nc4ccccc4s3)c(N)nc12 ... true
C/C(=N\Nc1cccc(Cl)n1)c1ccccn1 ... true
CC(C)(C)c1ccc(OCCOC(=O)CBr)cc1 ... false
CC(C)CCCCCOC(=O)c1ccccc1SSc1ccccc1C(=O)OCCCCCC(C)C ... false
CCCOC(=O)c1c(C)n(C)c2scc[n+]12 ... true

Record O=C1CSC(c2ccccc2Cl)N1c1nnc(-c2ccncc2)o1 (configuration not stated) : is its growth strictly below 90%?
false

* * *

Reported growth is given for each of the following molecules.
- Test system: SNB-75 CNS
- measurement-protocol: NCI-60 one-dose screen, 48 h (100 = growth as untreated, 0 = no growth, -100 = all killed)
- condition-summary: 10 µM unless noted
About 83,000 compounds went through this panel and 20% of them were active in at least one assay; those are over-represented in the sample as a whole. Calls of active or inactive are those of the source. The calls were made as follows: active = growth percent below 10; inactive = the rest.

A selection of reference data follows.
COc1nc(OC)nc(-c2cc(-c3cc(OC)c(OC)c(OC)c3)no2)n1 ... 97.2% (inactive)
CCC(C)(CC)c1ccc(O)c(C)c1 ... 86.2% (inactive)
COc1cc2c(/C=C3\C(=O)Nc4ccc(Br)cc43)c(Cl)n(C)c2cc1C ... 31.6% (inactive)
COC(=O)CC(=O)C(=O)OC ... 92.2% (inactive)
O=C(CN1C(=O)NC(c2ccccc2)(c2ccccc2)C1=O)c1ccc(N2CCCC2)cc1 ... 77.8% (inactive)

// assay SNB-75 CNS, entry COc1ccc(C2C3(C#N)C(N)=NC(=C(C#N)C#N)C23C#N)cc1OC (stereo unspecified) , growth value = 107% (inactive)

* * *

- Test system: NCI-H322M lung
- measurement-protocol: NCI-60 one-dose screen, 48 h
- condition-summary: 10 µM unless noted
Compounds without any hit were thinned out: in the full panel of roughly 83,000, 20% have a hit. The source made the active and inactive calls. The calls were made as follows: active = growth percent below 10; inactive = the rest.
The categories you may choose from are True = active, False = inactive

Nc1nc2c(c3cnccc13)C(c1cccc(Br)c1)Cc1cnccc1-2 (stereo not given) ... False

Could you kindly confirm the outcome this assay logged for COc1ccc(Cn2cc3c(c2-c2ccc(OC)cc2)CCc2cnoc2-3)cc1 ?
False

Could you kindly confirm the outcome this assay logged for C[n+]1c2ccccc2c(Nc2ccc(NS(=O)(=O)CCCCN=C(N)N)cc2)c2ccc(N)cc21 ?
False

Could you kindly confirm the outcome this assay logged for COC(=O)c1ccc2[nH]c(O)c(C(=Nc3ccc(N(C)C(=O)CN4CCN(C)CC4)cc3)c3ccc(CCO)cc3)c2c1 ?
False

Could you kindly confirm the outcome this assay logged for C/C(=N\Nc1ccc(Cl)cn1)c1ccccn1 ?
True

Could you kindly confirm the outcome this assay logged for CCN(CCO)CCNc1ccc(C)c2sc3cc(OC)ccc3c(=O)c12 ?
False

Could you kindly confirm the outcome this assay logged for Cc1ccc2c(O)c(O)cc(NC(C)CCCN)c2n1 (stereo not given) ?
False

Could you kindly confirm the outcome this assay logged for CC(O)CN(CC(C)O)N(CC(C)O)CC(C)O (stereo not given) ?
False

Could you kindly confirm the outcome this assay logged for COc1ccc(Cn2cc3c(c2)-c2oncc2CC3)cc1OC ?
False

Could you kindly confirm the outcome this assay logged for CCC(C)C1NC(=O)C(CC(C)C)NC(=O)C(C)NC(=O)C(C(C)C)NC(=O)C(CCCCN)NC(=O)C(CC(C)C)NC(=O)C(C(C)C)NC(=O)[C@H](C)NC(=O)C(C(C)CC)NC(=O)C(CCCN=C(N)N)NC(=O)C(CCCCN)NC(=O)C(CCCN=C(N)N)NC(=O)C(CCCCN)NC(=O)C([C@H](C)CC)NC(=O)C(CCCCN)NC1=O (stereo not given in full) ?
False

Could you kindly confirm the outcome this assay logged for OCC(O)C(O)CC1SCCS1 (stereo not given) ?
False

Could you kindly confirm the outcome this assay logged for CN1CCN(Cc2ccc(NC(=O)c3cncc(C#Cc4c(N)ncc5ccc(F)cc45)c3)cc2C(F)(F)F)CC1 ?
False

Could you kindly confirm the outcome this assay logged for COC(=O)CC(=O)C(=O)OC ?
False

Could you kindly confirm the outcome this assay logged for COc1ccc(-c2nnc(SCC(=O)Nc3ccc(C(=O)/C=C/c4cc(OC)c(OC)c(OC)c4)cc3)n2-c2ccccc2)cc1OC ?
False

Could you kindly confirm the outcome this assay logged for COc1cccc2c1n([O-])c1cccc(OC)c1[n+]2=O ?
False

Could you kindly confirm the outcome this assay logged for CCCCn1c(Cc2ccc(OC)cc2)nc2cc(OC)c(OC)cc2c1=O ?
False

Could you kindly confirm the outcome this assay logged for O=C1CCNC1 ?
False

Could you kindly confirm the outcome this assay logged for COc1ccc(Cn2cc3c(c2-c2ccccc2)CCc2cnoc2-3)cc1N ?
False

Could you kindly confirm the outcome this assay logged for COc1ccc(C2=NN(C(=O)c3cc(-c4ccc(C)cc4)nc4ccccc34)C(c3cc(-c4ccccc4)nn3-c3ccccc3)C2)cc1 (stereo not given) ?
False

Could you kindly confirm the outcome this assay logged for Cc1ccc(NC(=O)CCl)cc1Cl ?
False
